Entry source: patent US20230128252A1

assay: Solubility of clofazimine in various solvents; conditions: solvent, 25 °C, organic solvent or mixture, thermodynamic from solid, Solubility, Labrasol
REPORTED PROPERTY: solubility at 24 h (mg/mL)
One number for each entry, in mg/mL.

Input line: Field request: solubility at 24 h | item: CC(C)/N=c1\cc2n(-c3ccc(Cl)cc3)c3ccccc3nc-2cc1Nc1ccc(Cl)cc1 [Clofazimine]
Output line: 25.4

----------
assay: Solubility of clofazimine in various solvents; details: solvent, 25 °C, organic solvent or mixture, thermodynamic from solid, Solubility, Transcutol
REPORTED PROPERTY: solubility at 24 h (mg/mL)
Answers are plain numbers, in mg/mL.

Input line: Field request: solubility at 24 h | item: CC(C)/N=c1\cc2n(-c3ccc(Cl)cc3)c3ccccc3nc-2cc1Nc1ccc(Cl)cc1 [Clofazimine]
Output line: 21.6
